- Tested on: RXRa DBDmut IVT, anti-RXR (DBD mutation: RXRa K156A/R161A, NR concentration 90 nM)
- Method Notes: PBM binding z-score (relative to random genomic background probes); higher = stronger binding; sequences stand for … in GC…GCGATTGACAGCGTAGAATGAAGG
The entries below are paired with their reported PBM binding z-score.

Look over these answered cases.
{"Item Sequence": "ACTATTAGTTGACGTAGGGCAACCGATACGACGC", "PBM binding z-score": 0.582}
{"Item Sequence": "TTACGAAGGTGAGCTGAGGTCGTTGATCCAACTC", "PBM binding z-score": 0.439}
{"Item Sequence": "ATACCAAGGTGATCGTCAGGTCGTTGATACTAAC", "PBM binding z-score": -0.0242}
{"Item Sequence": "GCTCGGAGGACAAGGTTAGAGCTTTGTCCGTAGA", "PBM binding z-score": -0.384}

Challenge: Query for RXRa DBDmut IVT, anti-RXR (DBD mutation: RXRa K156A/R161A, NR concentration 90 nM): what PBM binding z-score does the record show for `ATACCAAGGTGATAGTGAGGTCGTTGATACTAAC` ?
Response given: 0.897

Challenge: `ATCGAAAGGTCGAGGTGAGTATTGAGAAAGGGAA` , same question.
Response given: 0.619

Challenge: `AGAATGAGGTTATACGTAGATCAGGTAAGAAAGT` , same question.
Response given: 1.81

Challenge: `TCATATCGGTAAACAGGTGAAAGTCCGTAAGTTA` , same question.
Response given: 1.26

Challenge: `TGTCAAAGTTCAAACGTAACGTAAGTATCCACAC` , same question.
Response given: 4.86

Challenge: `GCGACTCGGGCAAAGCAGGTTACCATAAGGTTGG` , same question.
Response given: -0.723

Challenge: `GCTCGGAGGACAAGGTCAGAGCGTTGTCCGTAGA` , same question.
Response given: 0.33
